MEASURED_PARAMETER: melting point

-- ask Quick check: melting point of "COc1ccc(-c2nc3cc(C(=O)Oc4ccc5ccc(=O)oc5c4)ccc3[nH]2)cc1" ?
-- reply 169 to 171 °C

-- ask Quick check: melting point of "Cc1c(Cl)cccc1-c1nc2cc(C(=O)Oc3ccc4ccc(=O)oc4c3)ccc2[nH]1" ?
-- reply 182 to 184 °C

-- ask Quick check: melting point of "O=C(Oc1ccc2ccc(=O)oc2c1)c1ccc2[nH]c(-c3ccccc3)nc2c1" ?
-- reply 180 to 183 °C

-- ask Quick check: melting point of "Cc1c(-c2nc3cc(C(=O)Oc4ccc5ccc(=O)oc5c4)ccc3[nH]2)cccc1[N+](=O)[O-]" ?
-- reply 194 to 196 °C

-- ask Quick check: melting point of "O=C(Oc1ccc2ccc(=O)oc2c1)c1ccc2[nH]c(-c3cccc(Cl)c3Cl)nc2c1" ?
-- reply 182 to 184 °C

-- ask Quick check: melting point of "O=C(Oc1ccc2ccc(=O)oc2c1)c1ccc2[nH]c(-c3cccc(Br)c3)nc2c1" ?
-- reply 172 to 174 °C

-- ask Quick check: melting point of "O=C(Oc1ccc2ccc(=O)oc2c1)c1ccc2[nH]c(-c3ccccc3Cl)nc2c1" ?
-- reply 189 to 191 °C

-- ask Quick check: melting point of "O=C(Oc1ccc2ccc(=O)oc2c1)c1ccc2[nH]c(-c3ccc(Cl)cc3)nc2c1" ?
-- reply 180 to 182 °C

The values you see were collected from paper PMC10978946.
